Data credit: patent US10377753B2

- assay_target: cloned human NR1/NR2B ion channels (Homo sapiens (Human), UniProt Q05586+Q13224)
- Sequence (Q13224 27-1484, other chains not shown): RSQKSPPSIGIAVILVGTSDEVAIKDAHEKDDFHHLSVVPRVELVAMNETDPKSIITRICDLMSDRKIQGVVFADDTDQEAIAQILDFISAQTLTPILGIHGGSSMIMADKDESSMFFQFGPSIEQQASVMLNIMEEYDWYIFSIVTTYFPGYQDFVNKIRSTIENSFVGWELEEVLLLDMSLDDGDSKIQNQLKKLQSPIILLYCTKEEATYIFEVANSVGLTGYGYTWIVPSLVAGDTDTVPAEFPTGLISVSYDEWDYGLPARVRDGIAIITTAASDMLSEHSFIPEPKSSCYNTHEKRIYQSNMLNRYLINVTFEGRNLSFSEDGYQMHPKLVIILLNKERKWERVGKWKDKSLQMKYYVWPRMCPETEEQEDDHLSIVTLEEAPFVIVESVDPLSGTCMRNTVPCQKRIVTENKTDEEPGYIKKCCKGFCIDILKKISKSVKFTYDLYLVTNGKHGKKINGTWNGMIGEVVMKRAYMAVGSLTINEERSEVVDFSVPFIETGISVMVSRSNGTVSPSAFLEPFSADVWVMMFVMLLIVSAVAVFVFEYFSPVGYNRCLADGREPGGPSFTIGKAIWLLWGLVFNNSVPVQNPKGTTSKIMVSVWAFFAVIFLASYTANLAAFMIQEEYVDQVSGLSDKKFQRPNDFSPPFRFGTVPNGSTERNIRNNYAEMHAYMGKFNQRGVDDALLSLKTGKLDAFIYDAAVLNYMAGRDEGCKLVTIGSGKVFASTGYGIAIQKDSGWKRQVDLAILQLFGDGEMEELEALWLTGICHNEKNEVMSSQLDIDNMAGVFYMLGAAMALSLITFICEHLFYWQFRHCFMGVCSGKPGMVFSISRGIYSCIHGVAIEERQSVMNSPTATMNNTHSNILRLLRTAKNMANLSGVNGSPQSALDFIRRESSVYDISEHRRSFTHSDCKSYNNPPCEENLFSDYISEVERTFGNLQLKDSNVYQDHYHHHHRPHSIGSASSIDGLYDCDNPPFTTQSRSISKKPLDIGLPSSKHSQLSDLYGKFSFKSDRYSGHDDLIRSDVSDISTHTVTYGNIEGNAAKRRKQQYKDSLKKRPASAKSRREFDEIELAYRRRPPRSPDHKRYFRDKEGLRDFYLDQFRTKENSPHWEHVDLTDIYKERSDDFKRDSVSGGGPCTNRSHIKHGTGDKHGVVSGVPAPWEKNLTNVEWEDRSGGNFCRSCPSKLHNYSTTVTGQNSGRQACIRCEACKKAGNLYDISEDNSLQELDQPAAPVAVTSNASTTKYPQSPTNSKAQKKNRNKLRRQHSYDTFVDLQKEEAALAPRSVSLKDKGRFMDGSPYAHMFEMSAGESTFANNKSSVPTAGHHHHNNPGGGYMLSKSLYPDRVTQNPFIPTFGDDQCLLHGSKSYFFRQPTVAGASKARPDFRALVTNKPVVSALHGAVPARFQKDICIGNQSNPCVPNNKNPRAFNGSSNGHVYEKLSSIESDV
- protocol_summary: HNR2BC: effects of test articles on cloned human NR1/NR2B ion channels expressed in mammalian cells (FLIPR calcium flux)
- Assay type: cell-based
- test_context: cloned human NR1/NR2B, Table 5
pIC50: −log10 of the molar value. Counter-ions that a name gives are not always drawn.
measured_property: pIC50

Some entries whose results are on file:
molecule	pIC50
O=C(Cn1cc(Cl)c2ncc(-c3ccc(F)c(F)c3F)cc21)N1CCC1	6.80
Cc1cc(-c2cnc3ccn(CC(=O)N4CC5(CC5)C4)c3c2)ccc1F [Example 208, trifluoroacetate salt]	6.50
Cc1cc(-c2cnc3c(F)cn(CC(=O)N4CCOCC4)c3c2)ccc1F	6.80
CC(C)C(=O)Cn1cc(F)c2ncc(-c3cccc(C(F)F)c3)cc21	7.30
CC1(C)CN(C(=O)Cn2ccc3ncc(-c4ccc(F)cc4)cc32)C1	6.80

[P] CN(C)C(=O)Cn1cc(Cl)c2ncc(-c3ccc(F)c(F)c3)cc21
[Q] Cc1cc(-c2cnc3ccn(CC(=O)N4CCOC(C)(C)C4)c3c2)ccc1F [Example 197, trifluoroacetate salt]
Task for the reader: decide whether P or Q has the larger pIC50. Your answer should be the label of the entry you select.
P

====

- assay_target: cloned human NR1/NR2B ion channels (Homo sapiens (Human), UniProt Q05586+Q13224)
- protocol_summary: HNR2BC: effects of test articles on cloned human NR1/NR2B ion channels expressed in mammalian cells (FLIPR calcium flux)
- Format: cell-based
- test_context: cloned human NR1/NR2B, Table 5
pIC50: −log10 of the molar value.
measured_property: pIC50

[I] Cc1cc(-c2cnc3ccn(CC(=O)O)c3c2)ccc1F
[II] CCc1cccc(-c2cnc3ccn(CC(=O)N4CCC4)c3c2)c1
[III] CCC(=O)Cn1cc(F)c2ncc(-c3ccc(F)c(C)c3)cc21
Order all 3 entries above by recorded pIC50, highest first, lowest last. Response format: the labels, sorted as the prompt asks.
III, I, II

====

- assay_target: cloned human NR1/NR2B ion channels (Homo sapiens (Human), UniProt Q05586+Q13224)
- protocol_summary: HNR2BC: effects of test articles on cloned human NR1/NR2B ion channels expressed in mammalian cells (FLIPR calcium flux)
- Format: cell-based
- test_context: cloned human NR1/NR2B, Table 5
Counter-ions that a name gives are not always drawn.
measured_property: IC50 (µM)

molecule	units_symbol	IC50
Cc1c(F)ccc(-c2cnc3ccn(CC(=O)N4CCC4)c3c2)c1C [Example 164, trifluoroacetate salt]	µM	0.0631

[1] O=C(Cn1ccc2ncc(-c3cccc(F)c3)cc21)N1CC(F)(F)C1 [Example 256, trifluoroacetate salt]
[2] CCC1CCCN1C(=O)Cn1ccc2ncc(-c3ccc(F)c(C)c3)cc21 (racemic) [Example 196, trifluoroacetate salt]
[3] O=C(C1CCC1)n1ccc2ncc(-c3ccc(F)c(F)c3)cc21
List the 3 entries from lowest IC50 to highest IC50 value. Response format: the labels, sorted as the prompt asks.
1, 3, 2
(1: 0.0794 µM, 3: 0.794 µM, 2: 1.26 µM)

====

- assay_target: cloned human NR1/NR2B ion channels (Homo sapiens (Human), UniProt Q05586+Q13224)
- protocol_summary: HNR2BC: effects of test articles on cloned human NR1/NR2B ion channels expressed in mammalian cells (FLIPR calcium flux)
- Type: cell-based
- test_context: cloned human NR1/NR2B, Table 5
Counter-ions that a name gives are not always drawn.
measured_property: IC50 (nM)

compound	assay_target	measured_property	experimental_result
O=C(Cn1cc(Cl)c2ncc(-c3ccccc3)cc21)C1CC1	cloned human NR1/NR2B ion channels (Homo sapiens (Human), UniProt Q05586+Q13224)	IC50	20
O=C(Cn1cc(Cl)c2ncc(-c3ccccc3)cc21)N1CCOCC1	cloned human NR1/NR2B ion channels (Homo sapiens (Human), UniProt Q05586+Q13224)	IC50	200
O=C(Cn1ccc2ncc(-c3ccc(F)cc3)cc21)NCC1CC1	cloned human NR1/NR2B ion channels (Homo sapiens (Human), UniProt Q05586+Q13224)	IC50	2000
Cc1cc(-c2cnc3c(Cl)cn(Cc4cnn(C)c4)c3c2)ccc1F	cloned human NR1/NR2B ion channels (Homo sapiens (Human), UniProt Q05586+Q13224)	IC50	501
O=C(Cn1cc(Br)c2ncc(-c3ccccc3)cc21)N1CCC1	cloned human NR1/NR2B ion channels (Homo sapiens (Human), UniProt Q05586+Q13224)	IC50	25.1

[I] O=C(Cn1ccc2ncc(-c3cccc(C(F)(F)F)n3)cc21)N1CC(F)(F)C1
[II] Cc1cc(Cn2ccc3ncc(-c4cccc(C(F)(F)F)c4)cc32)no1
[III] Cc1cc(-c2cnc3ccn(CC(=O)NC4CC4)c3c2)ccc1F
List the 3 entries from lowest IC50 to highest IC50 value. Response format: the labels, sorted as the prompt asks.
III, II, I

[1] Cc1cccc(-c2cnc3ccn(CC(=O)NC4CC4)c3c2)c1 [Example 155, trifluoroacetate salt]
[2] O=C(Cn1ccc2ncc(-c3ccccc3)cc21)N1CC(F)(F)C1 [Example 257, trifluoroacetate salt]
[3] Cc1cccc(-c2cnc3c(Br)cn(CC(=O)N4CCCC4)c3c2)c1
List the 3 entries from lowest IC50 to highest IC50 value. Response format: the labels, sorted as the prompt asks.
3, 2, 1
(3: 50.1 nM, 2: 126 nM, 1: 251 nM)

[a] CC1CN(C(=O)Cn2ccc3ncc(-c4ccc(F)cc4)cc32)C1
[b] CCC(=O)Cn1cc(F)c2ncc(-c3cc(F)c(F)c(F)c3)cc21
Task for the reader: decide whether a or b has the larger IC50. Your answer should be the label of the entry you select.
a

[I] CC(C)(C)C(=O)Cn1ccc2ncc(-c3cccc(C(F)F)c3)cc21
[II] O=C(Cn1ccc2ncc(-c3cc(F)c(F)c(F)c3)cc21)N1CCCC1
Which has the smaller recorded IC50, I or II ? Your answer should be the label of the entry you select.
II

====

- assay_target: cloned human NR1/NR2B ion channels (Homo sapiens (Human), UniProt Q05586+Q13224)
- protocol_summary: HNR2BC: effects of test articles on cloned human NR1/NR2B ion channels expressed in mammalian cells (FLIPR calcium flux)
- Type: cell-based
- test_context: cloned human NR1/NR2B ion channels, Table 5
pIC50: −log10 of the molar value.
measured_property: pIC50

[I] CN(C)C(=O)Cn1ccc2ncc(-c3ccc(F)c(F)c3F)cc21 [Example 437]
[II] Cc1cccc(-c2cnc3c(C)cn(CC(=O)N(C)C)c3c2)c1 [Example 572]
[III] CCc1cccc(-c2cnc3c(F)cn(CC(=O)N(C)C)c3c2)c1 [Example 505]
[IV] O=C(Cn1cc(Cl)c2ncc(-c3cccs3)cc21)N1CCC1 [Example 409]
[V] CCc1cccc(-c2cnc3c(Cl)cn(CC(=O)N4CC(F)C4)c3c2)c1 [Example 542]
Order all 5 entries above by recorded pIC50, highest first, lowest last. Response format: the labels, sorted as the prompt asks.
III, V, II, IV, I

[P] Cc1c(F)ccc(-c2cnc3c(Cl)cn(CC(=O)N4CC(F)C4)c3c2)c1F [Example 539]
[Q] Cc1cn(CC(=O)N2CCCC2)c2cc(-c3cc(F)cc(F)c3)cnc12 [Example 623]
Task for the reader: decide whether P or Q has the larger pIC50. Your answer should be the label of the entry you select.
Q
(Q: 7.80, P: 7.60)

====

- assay_target: cloned human NR1/NR2B ion channels (Homo sapiens (Human), UniProt Q05586+Q13224)
- protocol_summary: HNR2BC: effects of test articles on cloned human NR1/NR2B ion channels expressed in mammalian cells (FLIPR calcium flux)
- Type: cell-based
- test_context: cloned human NR1/NR2B ion channels, Table 5
pIC50: −log10 of the molar value.
measured_property: pIC50

Some entries whose results are on file:
CCN(C)C(=O)Cn1ccc2ncc(-c3cccc(C(F)(F)F)c3F)cc21 7.90
Cc1ccc(F)c(-c2cnc3ccn(CC(=O)N(C)C)c3c2)c1 6.40
Cc1cccc(-c2cnc3ccn(CC(=O)N(C)C)c3c2)c1F 6.10

[A] Cc1cn(CC(=O)N(C)C)c2cc(-c3cccc(C(F)(F)F)c3F)cnc12
[B] O=C(Cn1cc(Cl)c2ncc(-c3ccc(F)c(Cl)c3)cc21)N1CC(F)C1
Task for the reader: decide whether A or B has the larger pIC50. Your answer should be the label of the entry you select.
B
(B: 7.60, A: 6.90)

====

- assay_target: cloned human NR1/NR2B ion channels (Homo sapiens (Human), UniProt Q05586+Q13224)
- protocol_summary: HNR2BC: effects of test articles on cloned human NR1/NR2B ion channels expressed in mammalian cells (FLIPR calcium flux)
- Format: cell-based
- test_context: cloned human NR1/NR2B ion channels, Table 5
pIC50: −log10 of the molar value.
measured_property: pIC50

Some entries whose results are on file:
compound	experimental_result
CN(C)C(=O)Cn1cc(Cl)c2ncc(-c3cccs3)cc21	6.20
Cc1cn(CC(=O)N2CCC2)c2cc(-c3ccc(F)c(F)c3)cnc12	7.10
Cc1cn(CC(=O)N2CC(F)C2)c2cc(-c3ccc(F)c(F)c3F)cnc12	6.20
O=C(Cn1cc(F)c2ncc(-c3ccccc3)cc21)N1CC(F)C1	7.80
O=C(Cn1cc(Cl)c2ncc(-c3ccccc3F)cc21)N1CC(F)C1	6.70

[A] CN(C)C(=O)Cn1ccc2ncc(-c3cccc(C(F)(F)F)c3F)cc21
[B] O=C(Cn1cc(Cl)c2ncc(-c3cc(Cl)cs3)cc21)N1CCC1
Which has the smaller recorded pIC50, A or B ? Your answer should be the label of the entry you select.
A
